- assayComment: recombinant barcode read abundance after kanamycin selection (control-corrected) (log10(CPM+1)); higher = more efficient recombination; sequences stand for … in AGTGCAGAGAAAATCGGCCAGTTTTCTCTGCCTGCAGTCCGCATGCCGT…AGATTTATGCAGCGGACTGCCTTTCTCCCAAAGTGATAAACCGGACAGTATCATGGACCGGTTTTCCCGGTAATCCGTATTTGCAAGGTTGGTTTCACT; site = the 11-nt target
Note to self: values exactly at 0.1 are y. So recombinant barcode read abundance (log10) at or above 0.1 is y, below is n.

Reference set (4 entries):
>>> discretelabel("AGGGCGCCTTGGGTTCTAACCTGTTGCTT (site CATTTAGCTCC)")
"y"
>>> discretelabel("TCTTGTCCTTGGGTTCTAACCTGTTGCGA (site TCTTGTCCTCC)")
"y"
>>> discretelabel("TAGAACTCTTGGGTTCTAACCTGTTGCCA (site TAGAACTCTGG)")
"n"
>>> discretelabel("AGAGCGACTTGGGTTCTAACCTGTTGCTA (site CTCTACCCTCT)")
"y"

Req: recombinant barcode read abundance (log10) >= 0.1 for CGCGCGGCTTGGGTTCTAACCTGTTGCCT (site CGCGCGGCTAG) ?
Resp: y

Req: recombinant barcode read abundance (log10) >= 0.1 for ACAGTCGCTTGGGTTCTAACCTGTTGCCT (site ACAGGCGCTAG) ?
Resp: n

###

For each entry below, report its recombinant barcode read abundance (log10) value.
- assayComment: recombinant barcode read abundance after kanamycin selection (control-corrected) (log10(CPM+1)); higher = more efficient recombination; sequences stand for … in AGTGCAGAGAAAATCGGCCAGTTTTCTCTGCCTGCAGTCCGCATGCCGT…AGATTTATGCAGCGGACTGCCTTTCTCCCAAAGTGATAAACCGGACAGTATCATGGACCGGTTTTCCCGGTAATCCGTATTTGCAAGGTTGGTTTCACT; site = the 11-nt target
Give bare numbers.

Example cases with answers are listed next.
>>> numericresult("CGAAAATCTTGGGTTCTAACCTGTTGCCT (site CGCAAATCTAG)")
1.33
>>> numericresult("TGGAGCCCTTGGGTTCTAACCTGTTGCAC (site TGGAGCCCTAT)")
0.0355

# per-item lookup of recombinant barcode read abundance (log10); items listed below
1. CTGATTACTTGGGTTCTAACCTGTTGCCT (site CTGATTACTAG)
2. ACTAACACTTGGGTTCTAACCTGTTGCCT (site GCTAACACTAG)
3. GAGACATCTTGGGTTCTAACCTGTTGCCT (site GAGAGATCTAG)

Resp:
1: 0.21; 2: 0.0913; 3: 0.463

###

- assayComment: recombinant UMI read abundance after kanamycin selection (control-corrected) (log10(CPM+1)); higher = more efficient recombination; extreme values may be limits of the assay; sequences stand for … in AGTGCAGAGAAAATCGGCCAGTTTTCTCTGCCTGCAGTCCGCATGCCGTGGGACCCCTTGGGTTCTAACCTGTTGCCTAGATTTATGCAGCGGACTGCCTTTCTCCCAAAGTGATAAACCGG…AGGTTGGTTTCACT; site = the 11-nt donor
For each entry below, report its recombinant UMI read abundance (log10) value.
One number for each entry.

Example cases with answers are listed next.
>>> numericresult("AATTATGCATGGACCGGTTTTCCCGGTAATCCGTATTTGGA (site AATTGTGCTTC)")
0.266
>>> numericresult("CAAGGTGCATGGACCGGTTTTCCCGGTAATCCGTATTTGAT (site CCAGGTGCTAT)")
0.8
>>> numericresult("TACTGACCATGGACCGGTTTTCCCGGTAATCCGTATTTGGG (site TACTGACCTCC)")
0.0283
>>> numericresult("GTCGAGGCATGGACCGGTTTTCCCGGTAATCCGTATTTGTG (site GTGGAGGCTCA)")
0.0124
>>> numericresult("CGAGTATCATGGACCGGTTTTCCCGGTAATCCGTATTTGAT (site CTAGTATCTGT)")
0

# per-item lookup of recombinant UMI read abundance (log10); items listed below
1. GCGAAATCATGGACCGGTTTTCCCGGTAATCCGTATTTGCT (site GCGAAAGCTAG)
2. GTCTGAGCATGGACCGGTTTTCCCGGTAATCCGTATTTGGA (site GTCTGAGCTTC)
3. AAGTTTACATGGACCGGTTTTCCCGGTAATCCGTATTTGAC (site AAGTTTACTGT)
4. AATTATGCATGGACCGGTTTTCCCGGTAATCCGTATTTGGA (site AATTACGCTTC)

Resp:
[0, 0.754, 1.97, 0.439]
